Origin of measurements: patent US9758485B2

PROTOCOL SUMMARY: logP determination by HPLC on a reversed-phase column (C18), EEC Directive 79/831 Annex V.A8
Assay type: physicochemical
EXPERIMENTAL CONTEXT: reversed-phase HPLC column (C18), HPLC-MS method a), reversed-phase column (C18); read-out: logP^a)
TEST READOUT: chromatographic logP

1) CC[S+]([O-])c1cc(C(F)(C(F)(F)F)C(F)(F)F)cnc1-n1cc(-c2ccc(Cl)c(C(=O)NC3CC3)c2)cn1 (stereo not shown) ... 3.8
2) Cc1cc(C(F)(C(F)(F)F)C(F)(F)F)cc(C(F)(F)F)c1-n1cc(-c2ccc(Cl)c(C(=S)NC3CC3)c2)cn1 ... 5
3) CCSc1cc(C(F)(C(F)(F)F)C(F)(F)F)cnc1-n1cc(-c2ccc(Cl)c(C(=O)NC3CC3)c2)cn1 ... 4.7
4) Cc1cc(C(F)(C(F)(F)F)C(F)(F)F)cc(C)c1-n1cc(-c2ncc(Cl)c(C(=O)NC3CC3)n2)cn1 ... 4.5

###

PROTOCOL SUMMARY: logP determination by HPLC on a reversed-phase column (C18), EEC Directive 79/831 Annex V.A8
Format: physicochemical
EXPERIMENTAL CONTEXT: HPLC-MS, reversed-phase column (C18)
TEST READOUT: log P
Respond with the number and no other words.

Some entries whose results are on file:
1. CCS(=O)(=O)c1cc(C(F)(F)F)cc(C#N)c1-n1cc(-c2ccc(Cl)c(C(=O)NC3CC3)c2)cn1 ... 2.8
2. Cc1cc(C(F)(C(F)(F)F)C(F)(F)F)cc(C(F)(F)F)c1-n1cc(-c2cnc(Cl)c(C(=O)N(C)C3CC3)c2)cn1 ... 4.5
3. COc1ncc(-c2cnn(-c3c(C)cc(C(F)(C(F)(F)F)C(F)(F)F)cc3C)c2)cc1C(=O)NC1CC1 ... 4.6

Ask: # lookup: log P of `Cc1cc(C(F)(C(F)(F)F)C(F)(F)F)cc(C(F)(F)F)c1-n1cc(-c2cnc(C)c(C(=O)N(C)C3CC3)c2)cn1`
Result: 3.8

Ask: # lookup: log P of CC[S+]([O-])c1cc(C(F)(F)F)cc(C#N)c1-n1cc(-c2ccc(Cl)c(C(=O)NC3CC3)c2)cn1 (centres unmarked)
Result: 2.7

Ask: # lookup: log P of `Cc1ncc(-c2cnn(-c3c(Cl)cc(C(F)(C(F)(F)F)C(F)(F)F)cc3C(F)(F)F)c2)cc1C(=O)NC1CC1`
Result: 3.5

Ask: # lookup: log P of `Cc1ncc(-c2cnn(-c3c(Cl)cc(C(F)(C(F)(F)F)C(F)(F)F)cc3C(F)(F)F)c2)cc1C(=O)N(C)C1CC1`
Result: 3.8

Ask: # lookup: log P of `Cc1cc(C(F)(C(F)(F)F)C(F)(F)F)cc(C(F)(F)F)c1-n1cc(-c2cnc(Cl)c(C(=O)NC3(C#N)CC3)c2)cn1`
Result: 4.0

###

PROTOCOL SUMMARY: logP determination by HPLC on a reversed-phase column (C18), EEC Directive 79/831 Annex V.A8
Assay type: physicochemical
EXPERIMENTAL CONTEXT: HPLC-MS method a), Table I-T3
TEST READOUT: logP^a)
Respond with the number and no other words.

Some entries whose results are on file:
1) O=C(NC1CC1)c1cc(-c2cnn(-c3c(Cl)cc(C(F)(C(F)(F)F)C(F)(F)F)cc3Cl)c2)cnc1Cl ... 3.8
2) N#CC1(NC(=O)c2cc(-c3cnn(-c4ccc(OC(F)(F)F)cc4Cl)c3)ccc2Cl)CC1 ... 3.5
3) Cc1cc(C(F)(C(F)(F)F)C(F)(F)F)cc(C)c1-n1cc(-c2ccc(Cl)c(C(=O)NC3CSC3)c2)cn1 ... 4.7
4) Cc1cc(C(F)(C(F)(F)F)C(F)(F)F)cc(C)c1-n1cc(-c2cnc(Cl)c(C(=O)NC3CC3)c2)cn1 ... 3.8
5) Cc1ccc(C(=O)NC2CC2)cc1-c1cnn(-c2c(C)cc(C(F)(C(F)(F)F)C(F)(F)F)cc2C)c1 ... 4.4
6) Cc1cc(C(F)(C(F)(F)F)C(F)(F)F)cc(C)c1-n1cc(-c2ccc(Cl)c(C(=O)NCC(F)(F)F)c2)cn1 ... 4.7
7) O=C(NCC(F)(F)F)c1cc(-c2cnn(-c3c(Cl)cc(C(F)(C(F)(F)F)C(F)(F)F)cc3C(F)(F)F)c2)ccc1Cl ... 4.7
8) Cc1cc(C(F)(C(F)(F)F)C(F)(F)F)cc(C(F)(F)F)c1-n1cc(-c2ccc(Cl)c(C(=O)NC3CC3)c2)cn1 ... 4.4

Ask: # lookup: logP^a) of `Cc1cc(C(F)(C(F)(F)F)C(F)(F)F)cc(C)c1-n1cc(-c2cc(C(=O)NC3(C#N)CC3)c(F)cc2Cl)cn1`
Result: 4.7

Ask: # lookup: logP^a) of `CCc1cc(C(F)(C(F)(F)F)C(F)(F)F)ccc1-n1cc(-c2ccc(Cl)c(C(=O)NC3(C#N)CC3)c2)cn1`
Result: 4.5

Ask: # lookup: logP^a) of `CCc1cc(C(F)(F)C(F)(F)F)cc(C)c1-n1cc(-c2ccc(Cl)c(C(=O)NCC(F)(F)F)c2)cn1`
Result: 4.0

Ask: # lookup: logP^a) of `CCc1cc(C(F)(F)C(F)(F)F)cc(C)c1-n1cc(-c2ccc(Cl)c(C(=O)NC3CC3)c2)cn1`
Result: 4.3

Ask: # lookup: logP^a) of `CCc1cc(C(F)(C(F)(F)F)C(F)(F)F)ccc1-n1cc(-c2cncc(C(=O)NC3CC3)c2)cn1`
Result: 3.3

Ask: # lookup: logP^a) of `N#CC1(NC(=O)c2cc(-c3cnn(-c4c(F)cc(C(F)(C(F)(F)F)C(F)(F)F)cc4F)c3)ccc2Cl)CC1`
Result: 3.9

Ask: # lookup: logP^a) of `Cc1cc(C(F)(C(F)(F)F)C(F)(F)F)cc(Cl)c1-n1cc(-c2ccc(Cl)c(C(=O)NC3CC3)c2)cn1`
Result: 4.4

Ask: # lookup: logP^a) of `CCc1cc(C(F)(C(F)(F)F)C(F)(F)F)cc(C)c1-n1cc(-c2ccc(Cl)c(C(=O)NC3CSC3)c2)cn1`
Result: 5.0

Ask: # lookup: logP^a) of `Cc1cc(C(F)(C(F)(F)F)C(F)(F)F)cc(C)c1-n1cc(-c2cccc(C(=O)NC3(C#N)CC3)c2F)cn1`
Result: 4.2

Ask: # lookup: logP^a) of `O=C(NC1CC1)c1cc(-c2cnn(-c3c(Cl)cc(C(F)(C(F)(F)F)C(F)(F)F)cc3C(F)(F)F)c2)ccc1Cl`
Result: 4.4

Ask: # lookup: logP^a) of `CCc1cc(C(F)(C(F)(F)F)C(F)(F)F)cc(Cl)c1-n1cc(-c2ccc(Cl)c(C(=O)NC3CC3)c2)cn1`
Result: 4.6

Ask: # lookup: logP^a) of `O=C(NC1CC1)c1cc(-c2cnn(-c3ccc(C(F)(C(F)(F)F)C(F)(F)F)cc3C(F)(F)F)c2)ccc1Cl`
Result: 4.3

Ask: # lookup: logP^a) of `CCc1cc(C(F)(C(F)(F)F)C(F)(F)F)ccc1-n1cc(-c2ccc(Cl)c(C(=O)NCC(F)(F)F)c2)cn1`
Result: 4.9

Ask: # lookup: logP^a) of `Cc1cc(C(F)(C(F)(F)F)C(F)(F)F)cc(C(F)(F)F)c1-n1cc(-c2ccc(Cl)c(C(=O)NC3(C#N)CC3)c2)cn1`
Result: 4.3

Ask: # lookup: logP^a) of `O=C(NCC(F)(F)F)c1cc(-c2cnn(-c3ccc(C(F)(C(F)(F)F)C(F)(F)F)cc3Cl)c2)ccc1Cl`
Result: 4.7

Ask: # lookup: logP^a) of `Cc1cc(C(F)(C(F)(F)F)C(F)(F)F)cc(C)c1-n1cc(-c2ccc(Cl)c(C(=O)NC3(C#N)CC3)c2F)cn1`
Result: 4.3

Ask: # lookup: logP^a) of `Cc1cc(C(F)(C(F)(F)F)C(F)(F)F)cc(C)c1-n1cc(-c2cccc(C(=O)NC3CC3)c2)cn1`
Result: 3.3

Ask: # lookup: logP^a) of `Cc1cc(C(F)(C(F)(F)F)C(F)(F)F)cc(Cl)c1-n1cc(-c2ccc(Cl)c(C(=O)NC3(C#N)CC3)c2)cn1`
Result: 4.2

Ask: # lookup: logP^a) of `CCc1cc(C(F)(C(F)(F)F)C(F)(F)F)cc(C)c1-n1cc(-c2cncc(C(=O)NC3CC3)c2)cn1`
Result: 3.4

Ask: # lookup: logP^a) of `Cc1cc(C(F)(C(F)(F)F)C(F)(F)F)cc(C(F)(F)F)c1-n1cc(-c2ccc(Cl)c(C(=O)NCC(F)(F)F)c2)cn1`
Result: 4.7
